Values were extracted from patent US4278671A.

The molecules below have reported MIC for E. coli T-7.
Enter your answer as a number in µg/mL; do not include the unit.

Some molecules with known MIC results, for comparison:
molecule: CO/N=C(\C(=O)NC1C(=O)N2C(C(=O)O)=C(COC(N)=O)CSC12)c1csc(N)n1 (stereo not drawn)
uom: µg/mL
measuredValue: 0.39
--
molecule: CO/N=C(\C(=O)NC1C(=O)N2C(C(=O)O)=C(C)CSC12)c1csc(N)n1 (stereo not drawn)
uom: µg/mL
measuredValue: 6.25
--
molecule: CO/N=C(\C(=O)NC1C(=O)N2C(C(=O)O)=C(CSc3nnnn3CCN(C)C)CSC12)c1csc(N)n1 (stereo not drawn) [(e)]
uom: µg/mL
measuredValue: 1.56
--
molecule: CO/N=C(\C(=O)NC1C(=O)N2C(C(=O)O)=C(CSc3nnnn3C)CSC12)c1csc(N)n1 (stereo not drawn)
uom: µg/mL
measuredValue: 0.78
--
molecule: CO/N=C(\C(=O)NC1C(=O)N2C(C(=O)O)=C(CSc3nnc(C)s3)CSC12)c1csc(N)n1 (stereo not drawn)
uom: µg/mL
measuredValue: 1.56

Then there is this molecule:
Hello, I am looking for reported MIC with E. coli T-7 for CO/N=C(\C(=O)NC1C(=O)N2C(C(=O)O)=C(COC(C)=O)CSC12)c1csc(N)n1 (stereo not drawn) . Could you help? 0.78

====

- Test system: P. rettgeri 8(TN0336)
- experimentDescription: minimal inhibitory concentration against P. rettgeri 8 (TN0336)
- Type: cell-based, Proteus rettgeri
- condition: Providencia rettgeri; P. rettgeri 8(TN0336); read-out: minimal inhibitory concentration
readoutType: MIC

compound: CO/N=C(\C(=O)NC1C(=O)N2C(C(=O)O)=C(CSc3nnnn3C)CSC12)c1csc(N)n1 (stereo not drawn) [Example 2]
measuredValue: ≤ 0.012 mg/L

compound: CO/N=C(\C(=O)NC1C(=O)N2C(C(=O)O)=C(CSc3nnnn3CCN(C)C)CSC12)c1csc(N)n1 (stereo not drawn) [(e)]
measuredValue: 0.024 mg/L

compound: CO/N=C(\C(=O)NC1C(=O)N2C(C(=O)O)=C(CSc3nnc(C)s3)CSC12)c1csc(N)n1 (stereo not drawn) [(a)]
measuredValue: ≤ 0.012 mg/L

compound: CO/N=C(\C(=O)NC1C(=O)N2C(C(=O)O)=C(COC(C)=O)CSC12)c1csc(N)n1 (stereo not drawn) [Example 3]
measuredValue: ≤ 0.012 mg/L

compound: CO/N=C(\C(=O)NC1C(=O)N2C(C(=O)O)=C(COC(N)=O)CSC12)c1csc(N)n1 (stereo not drawn) [Example 1]
measuredValue: ≤ 0.012 mg/L

Could you now look at the following compound, please?
What value of MIC has been reported for the following compound? CO/N=C(\C(=O)NC1C(=O)N2C(C(=O)O)=C(C)CSC12)c1csc(N)n1 (stereo not drawn) [Example 5] ≤ 0.012 mg/L
